# system: wild-type HDAC1 (Homo sapiens)
# Sequence (Q13547 whole entry): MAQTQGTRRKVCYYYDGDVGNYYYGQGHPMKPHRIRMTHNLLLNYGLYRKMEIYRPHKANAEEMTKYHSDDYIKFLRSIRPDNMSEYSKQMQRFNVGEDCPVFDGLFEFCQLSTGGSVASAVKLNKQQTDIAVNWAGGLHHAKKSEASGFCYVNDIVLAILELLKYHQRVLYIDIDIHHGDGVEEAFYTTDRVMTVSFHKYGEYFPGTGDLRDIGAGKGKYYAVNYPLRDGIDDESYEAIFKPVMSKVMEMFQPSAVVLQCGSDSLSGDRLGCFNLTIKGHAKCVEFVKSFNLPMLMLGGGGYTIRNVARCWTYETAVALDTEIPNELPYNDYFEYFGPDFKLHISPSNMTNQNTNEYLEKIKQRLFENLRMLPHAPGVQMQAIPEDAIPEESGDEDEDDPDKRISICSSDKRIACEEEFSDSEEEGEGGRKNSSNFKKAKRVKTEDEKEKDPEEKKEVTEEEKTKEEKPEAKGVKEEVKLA
readout kind: pIC50
Keep in mind that pIC50 stands for -log10 of concentration in molar terms.

Briefly, pIC50 measured for CC(=O)[O-].[Na+] [acetate, sodium acetate] : 2.14

====

# system: HDAC1 R36A (Homo sapiens, UniProt Q13547, R36A)
# Sequence (Q13547 whole entry R36A): as the sequence (Q13547 whole entry) above, with R36A counted along it
# assay protocol: Acetate inhibition assay
# protocol conditions: acetate inhibition; HDAC1 R36A
readout kind: pIC50
API: returns pIC50 as number; meaning -log10 of concentration in mol/L.

Assay HDAC1 R36A (Homo sapiens, UniProt Q13547, R36A), sample CC(=O)[O-].[Na+] [acetate, sodium acetate] , pIC50 read: 1.80
